Form field: IC50 (one value per entry).
# Test system: pERK in ASPC1 cells
# TEST: Inhibition of KRas phosphorylation of ERK (Cisbio HTRF pERK assay)
# EXPERIMENTAL PARAMETERS: Homo sapiens, ASPC1, read-out: Inhibition (HTRF IC50) of KRas-mediated Phosphorylation of ERK, AsPC-1
Note: unit nM is implicit; provide only the numeric part.

Give IC50 for CCc1cccc2cc(O)c(F)c(-c3ncc4c(N5CCC[C@@](C)(O)C5)nc(OC[C@@]56CCCN5C[C@H](F)C6)nc4c3F)c12 [Example 472] tested on pERK in ASPC1 cells. 89

Give IC50 for CCc1c(F)ccc2cc(O)cc(-c3ncc4c(N5CCCn6nc(C(=O)N7CCN(C)CC7)cc6C5)nc(OC[C@@]56CCCN5C[C@H](F)C6)nc4c3F)c12 [Example 477] tested on pERK in ASPC1 cells. 61

---
Give IC50 for CCc1c(F)ccc2cc(O)cc(-c3ncc4c(N5CCCC6(COC(=O)N6)C5)nc(OC[C@@]56CCCN5C[C@H](F)C6)nc4c3F)c12 (stereo partly drawn) [Example 478] tested on pERK in ASPC1 cells. 192

Give IC50 for CCc1c(F)ccc2cc(O)cc(-c3ncc4c(N5CCC[C@]6(CC(=O)N6)C5)nc(OC[C@@]56CCCN5C[C@H](F)C6)nc4c3F)c12 (single isomer, unassigned) [Example 194] tested on pERK in ASPC1 cells. 20

Give IC50 for CCc1c(F)ccc2cc(O)cc(-c3ncc4c(N5CCC[C@@](C)(O)C5)nc(OCC5(CN6CCN(C)CC6)CC5)nc4c3F)c12 [Example 336] tested on pERK in ASPC1 cells. 32

Give IC50 for CCc1c(F)ccc2cc(O)cc(-c3ncc4c(N5CCC[C@@](C)(O)C5)nc(OC[C@]56CCCN5[C@@H](COC(=O)N(C)C)CC6)nc4c3F)c12 [Example 362] tested on pERK in ASPC1 cells. 73

---

# STUDY TARGET: KRas G12R (Homo sapiens, UniProt P01116, G12R)
# Sequence (P01116 1-169 isoform P01116-2 G12R): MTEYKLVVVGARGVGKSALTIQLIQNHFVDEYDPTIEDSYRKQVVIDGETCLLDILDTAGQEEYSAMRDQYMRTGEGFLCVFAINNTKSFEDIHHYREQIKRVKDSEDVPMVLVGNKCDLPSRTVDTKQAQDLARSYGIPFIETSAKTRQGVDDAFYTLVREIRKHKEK
# TEST: biochemical
PROPERTY MEASURED: IC50 (nM)
Note: unit nM is implicit; provide only the numeric part.

Determine from records and report IC50 for CCc1c(F)ccc2cc(O)cc(-c3ncc4c(N5CCOCC6(C5)NC(=O)NC6=O)nc(OC[C@@]56CCCN5C[C@H](F)C6)nc4c3F)c12 (some centres unmarked) 5

Determine from records and report IC50 for `OC12CC(Nc3nc(OCC45CCCN4CCC5)nc4c(F)c(-c5cccc6cccc(F)c56)ncc34)(C1)C2` 4190

---
Determine from records and report IC50 for `Fc1c(-c2cccc3cccc(F)c23)ncc2c(OCCCc3cccnc3)nc(OCC34CCCN3CCC4)nc12` 13100

Determine from records and report IC50 for `CCc1c(F)ccc2cc(O)cc(-c3ncc4c(NCc5n[nH]cc5C)nc(OC[C@@]56CCCN5C[C@H](F)C6)nc4c3F)c12` 9

---

# STUDY TARGET: KRas G12R (Homo sapiens, UniProt P01116, G12R);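 further: TR-FRET displacement assay of compound binding to KRas, read after one hour at room temperature, potency from a four-parameter fit of percent-of-control values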
# TEST: biochemical
PROPERTY MEASURED: pIC50
Give only the number. pIC50 is defined as minus log10 of concentration in molar units.

Use these answered entries as a reference point.
Determine from records and report pIC50 for CCc1cccc2cccc(-c3ncc4c(NCc5c[nH]c6ncccc56)nc(OCC56CCCN5CCC6)nc4c3F)c12 [Example 205] 8.15

Determine from records and report pIC50 for Fc1c(-c2cccc3cccc(F)c23)ncc2c(N3CCCC(c4nc[nH]n4)C3)nc(OCC34CCCN3CCC4)nc12 (stereo not shown) [Example 30] 5.90

Determine from records and report pIC50 for CCc1cccc2cccc(-c3ncc4c(N5CCCC(CS(N)(=O)=O)C5)nc(OCC56CCCN5CCC6)nc4c3F)c12 (stereo not shown) [Example 285] 6.46

Determine from records and report pIC50 for NS(=O)(=O)CC1CN(c2nc(OCC34CCCN3CCC4)nc3c(F)c(-c4cccc5cccc(F)c45)ncc23)CCO1 (stereo not shown) [Example 249] 6.37

Determine from records and report pIC50 for Fc1c(-c2cccc3cccc(F)c23)ncc2c(N3CCOCC3)nc(OCC34CCCN3CCC4)nc12 [Example 49] 4.72

Please turn your attention to the following entry.
Determine from records and report pIC50 for CCc1c(F)ccc2cc(O)cc(-c3ncc4c(N5CCOCC(C)(CO)C5)nc(OC[C@@]56CCCN5C[C@H](F)C6)nc4c3F)c12 (stereo partly shown) [Example 496] 8.22
